- STUDY_SYSTEM: full length AKT E17K (Homo sapiens, UniProt P31749, E17K)
- Construct: host or cells: HEK-293 (ATCC CRL-1573)
- Sequence (P31749 whole entry E17K): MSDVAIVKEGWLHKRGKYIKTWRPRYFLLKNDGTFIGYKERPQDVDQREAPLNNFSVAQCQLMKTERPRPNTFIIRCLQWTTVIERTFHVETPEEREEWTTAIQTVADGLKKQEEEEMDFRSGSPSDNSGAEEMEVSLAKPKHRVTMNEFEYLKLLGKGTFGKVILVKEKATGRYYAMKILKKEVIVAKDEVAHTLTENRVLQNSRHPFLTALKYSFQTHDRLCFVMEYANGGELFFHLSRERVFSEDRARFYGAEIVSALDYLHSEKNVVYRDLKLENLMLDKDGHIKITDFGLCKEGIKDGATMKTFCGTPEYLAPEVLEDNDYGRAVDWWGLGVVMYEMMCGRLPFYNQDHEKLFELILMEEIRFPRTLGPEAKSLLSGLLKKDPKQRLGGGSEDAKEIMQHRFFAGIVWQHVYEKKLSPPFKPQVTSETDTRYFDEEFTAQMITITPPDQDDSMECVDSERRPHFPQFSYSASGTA
- PROCEDURE_SUMMARY: NanoBRET Target Engagement (TE) Assay
- Format: cell-based
- CONDITION_PARAMETERS: competitive tracer displacement in living cells, read-out: AKT1 E17K IC50
RECORDED_METRIC: IC50

These recorded examples may help you get a feel for the data.
# COMPOUND, IC50
rows = [
    ("N#Cc1ccnc(NC2CCN(Cc3ccc(-n4c(-c5cccnc5N)nc5cccnc54)cc3)CC2)c1 [Example 75]", "600 to 10000 nM"),
    ("N#Cc1cc(N2CC3CCC(C2)N3Cc2ccc(-n3c(-c4cccnc4N)nc4ccc(-c5ccccc5)nc43)cc2)ncn1 [Example 213]", "15 to 60 nM"),
    ("N#Cc1ccc(C(=O)N2CCN(Cc3ccc(-n4c(-c5cccnc5N)nc5cc(-c6ccccc6)cnc54)cc3)CC2)cn1 [Example 111]", "600 to 10000 nM"),
]

Please look at the following compound next.
Would you kindly share the measured IC50 for N#Cc1cc(NC2CCN(Cc3ccc(-n4c(-c5cccnc5N)nc5ccc(-c6ccccc6F)nc54)cc3)CC2)ncn1 [Example 315] ?
15 to 60 nM

----------
- STUDY_SYSTEM: full length AKT E17K (Homo sapiens, UniProt P31749, E17K)
- Construct: host or cells: HEK-293 (ATCC CRL-1573)
- PROCEDURE_SUMMARY: NanoBRET Target Engagement (TE) Assay
- Type: cell-based
- CONDITION_PARAMETERS: competitive displacement of tracer in cells, read-out: AKT1 E17K IC50
RECORDED_METRIC: IC50

Please look at the items below and tell me IC50 for each one, in order.
1. N#Cc1nccc(NC2CCN(Cc3ccc(-n4c(-c5cccnc5N)nc5cnccc54)cc3)CC2)n1 [Example 540]
2. CN1CCCN(c2ccc3nc(-c4cccnc4N)n(-c4ccc(CN5CCN(c6ccnc(C#N)n6)CC5)cc4)c3n2)CC1=O [Example 386]
3. N#Cc1nccc(NC2CCN(Cc3ccc(-n4c(-c5cccnc5N)nc5ccc(-c6ccc(F)cn6)cc54)cc3)CC2)n1 [Example 602]
4. CN(C(=O)c1ccnc(C#N)n1)C1CCN(Cc2ccc(-n3c(-c4cccnc4N)nc4ccc(-c5ccccc5)nc43)cc2)CC1 [Example 336]
5. N#Cc1nccc(NC2CCN(Cc3ccc(-n4c(-c5cccnc5N)nc5cc(Br)c(-c6ccc(F)cc6)nc54)cc3)CC2)n1 [Example 549]

1. 60 to 600 nM
2. 15 to 60 nM
3. < 15 nM
4. < 15 nM
5. < 15 nM

----------
- STUDY_SYSTEM: full length AKT E17K (Homo sapiens, UniProt P31749, E17K)
- Construct: host or cells: HEK-293 (ATCC CRL-1573)
- PROCEDURE_SUMMARY: NanoBRET Target Engagement (TE) Assay
- Format: cell-based
- CONDITION_PARAMETERS: competitive displacement of tracer in cells, read-out: AKT1 E17K IC50
- Method: The NanoBRET™ Target Engagement (TE) Intracellular Kinase Assays are based on the NanoBRET™ System (Promega Corporation), an energy transfer technique designed to measure molecular proximity in living cells. […] All cells were evaluated for viability prior to transfection and optimization of the transfection was done prior to experimentation. […] Milli-BRET units (mBU) are calculated by multiplying the raw BRET values by 1000. […]
pIC50: −log10 of the molar value.
RECORDED_METRIC: pIC50

These recorded examples may help you get a feel for the data.
# COMPOUND, pIC50
measured = [
    ("N#Cc1nccc(NC2CCN(Cc3ccc(-n4c(-c5cccnc5N)nc5ncccc54)cc3)CC2)n1", "6.22 to 7.22"),
    ("[2H]c1nc(OC([2H])([2H])[2H])ccc1-c1ccc2nc(-c3cccnc3N)n(-c3ccc(CN4CCC(Nc5ccnc(C#N)n5)CC4)cc3)c2n1", "> 7.82"),
    ("N#Cc1nccc(NC2CCN(Cc3ccc(-n4c(-c5cccnc5N)nc5ccc(-c6cnn(C7CC7)n6)nc54)cc3)CC2)n1", "> 7.82"),
    ("N#Cc1nccc(NC2CCN(Cc3ccc(-n4c(-c5cccnc5N)nc5ccc(N)nc54)cc3)CC2)n1", "7.22 to 7.82"),
    ("N#Cc1nccc(NC2CCN(Cc3ccc(-n4c(-c5cccnc5N)nc5ccc(N6CCCC6)nc54)cc3)CC2)n1", "> 7.82"),
    ("N#Cc1nccc(NC2CCN(Cc3ccc(-n4c(-c5cccnc5N)nc5ccc(-c6ccc(OCF)cn6)nc54)cc3)CC2)n1", "> 7.82"),
    ("CC(C)C(=O)Nc1cccc(-c2ccc3nc(-c4cccnc4N)n(-c4ccc(CN5CCC(Nc6ccnc(C#N)n6)CC5)cc4)c3n2)c1", "> 7.82"),
    ("Cc1ncoc1-c1ccc2nc(-c3cccnc3N)n(-c3ccc(CN4CCC(Nc5ccnc(C#N)n5)CC4)cc3)c2n1", "> 7.82"),
]

Please look at the items below and tell me pIC50 for each one, in order.
1. N#Cc1nccc(NC2CCN(Cc3ccc(-n4c(-c5cccnc5N)nc5ccc(-c6ccccc6C#N)nc54)cc3)CC2)n1
2. N#CCn1ncc(-c2ccc3nc(-c4cccnc4N)n(-c4ccc(CN5CCC(Nc6ccnc(C#N)n6)CC5)cc4)c3n2)n1
3. N#Cc1nccc(NC2CCN(Cc3ccc(-n4c(-c5cccnc5N)nc5ccc(O)nc54)cc3)CC2)n1
4. N#Cc1nccc(NC2CCN(Cc3ccc(-n4c(-c5cccnc5N)nc5ccc(-c6ccnc(OC(F)F)c6)nc54)cc3)CC2)n1

1. > 7.82
2. > 7.82
3. 7.22 to 7.82
4. 7.22 to 7.82

Please look at the items below and tell me pIC50 for each one, in order.
1. N#CCn1ncc(-c2ccc3nc(-c4nccnc4N)n(-c4ccc(CN5CCC(Nc6ccnc(C#N)n6)CC5)cc4)c3n2)n1
2. Cc1nn(C)cc1-c1ccc2nc(-c3cccnc3N)n(-c3ccc(CN4CCC(Nc5ccnc(C#N)n5)CC4)cc3)c2n1
3. N#Cc1nccc(NC2CCN(Cc3ccc(-n4c(-c5cccnc5N)nc5ccc(-c6ccc[nH]c6=O)nc54)cc3)CC2)n1 [Example 381]
4. N#Cc1nccc(NC2CCN(Cc3ccc(-n4c(-c5cccnc5N)nc5ccc(-c6ccc(F)cc6C(F)(F)F)nc54)cc3)CC2)n1
5. N#Cc1nccc(NC2CCN(Cc3ccc(-n4c(-c5cccnc5N)nc5ccc(-c6ccc(OC7CC7)cn6)nc54)cc3)CC2)n1

["> 7.82", "> 7.82", "> 7.82", "5.00 to 6.22", "> 7.82"]

Where these numbers come from: patent US12209087B2
